Target: T1, Full-length human HER3 extracellular domain (ECD) (human, UniProt P21860 20-643)
T1 construct: also called human HER3 ECD; HER-3 ECD full length
T1 sequence (P21860 20-643): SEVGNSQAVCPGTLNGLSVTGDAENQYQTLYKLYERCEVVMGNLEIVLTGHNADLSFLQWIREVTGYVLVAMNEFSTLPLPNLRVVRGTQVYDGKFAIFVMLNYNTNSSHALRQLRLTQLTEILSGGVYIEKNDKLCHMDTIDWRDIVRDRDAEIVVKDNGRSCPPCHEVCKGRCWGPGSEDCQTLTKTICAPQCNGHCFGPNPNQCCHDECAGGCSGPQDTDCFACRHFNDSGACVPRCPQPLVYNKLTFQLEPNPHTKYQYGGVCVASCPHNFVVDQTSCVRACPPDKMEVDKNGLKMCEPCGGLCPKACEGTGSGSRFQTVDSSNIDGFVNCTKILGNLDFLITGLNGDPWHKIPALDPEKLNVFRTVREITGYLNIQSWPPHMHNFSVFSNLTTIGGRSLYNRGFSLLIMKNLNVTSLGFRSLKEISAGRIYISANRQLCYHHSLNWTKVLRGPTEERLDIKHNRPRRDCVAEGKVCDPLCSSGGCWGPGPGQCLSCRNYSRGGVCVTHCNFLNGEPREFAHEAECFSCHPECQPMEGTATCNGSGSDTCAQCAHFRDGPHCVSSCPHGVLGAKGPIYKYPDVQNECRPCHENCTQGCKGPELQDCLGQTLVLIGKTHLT
Experiment: BIACORE 3000 SPR, mAb captured by anti-human Fc, ECD as analyte, 25 C
kon reference
ENDPOINT NAME: kon (M⁻¹ s⁻¹)

| BINDER | RECORDED MEASUREMENT |
| --- | --- |
| Humanized 15D5 antibody (H4L1) (antibody, human IgG1, V domains shown, Human IgG1; also called h15D5) VH: QVQLVQSGAEVKKPGASVKVSCKASGYTFTDYNMNWVRQAPGQGLEWMGGINPNYGTTVYNQKFKGKVTLTVDTSISTAYMELSRLRSDDTAVYYCARMTTIVPFDYWGQGTTVTVSS VL: DIQMTQSPSSLSASVGDRVTITCRASQDISNYLNWYQQKPGKAPKLLIYYTSTLHSGVPSRFSGSGSGTDYTFTISSLQPEDIATYYCQQGYTLPWTFGGGTKVEIKR | 74900 |
| 1D9 H6L3 RR antibody (antibody, V domains shown, Humanized RR variant) VH: QVQLVQSGAEVKKPGASVKVSCKASGYTFTSYWMHWVRQAPGQGLEWMGVIDPSDGYSHYNQKFKGKVTLTVDTSISTAYMELSRLRSDDTAVYYCAGGLAGTLDYWGQGTTVTVSS VL: DVQMTQSPSSLSASVGDRVTITCRSSQSIVHSSGNTYLQWYQQKPGKAPKLLIYKVSNRFSGVPSRFSGSGSGTDFTLTISSLQPEDFAVYYCFQGSHVPWTFGQGTKLEIKR | 773000 |
| 1D9 H6L9 RR antibody (antibody, V domains shown, Humanized RR variant) VH: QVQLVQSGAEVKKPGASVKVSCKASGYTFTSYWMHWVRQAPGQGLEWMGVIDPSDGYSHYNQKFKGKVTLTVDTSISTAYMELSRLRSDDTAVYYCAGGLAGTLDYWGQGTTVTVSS VL: DVVMTQSPLSLPVTLGQPASISCRSSQSIVHSSGNTYLQWFQQRPGQSPKLLISKVSNRFSGVPDRFSGSGSGTDFTLKISRVEAEDVGVYYCFQGSHVPWTFGQGTKLEIKR | 665000 |
| 15D5 H4L3 (antibody, V domains shown, To be rechecked) VH: QVQLVQSGAEVKKPGASVKVSCKASGYTFTDYNMNWVRQAPGQGLEWMGGINPNYGTTVYNQKFKGKVTLTVDTSISTAYMELSRLRSDDTAVYYCARMTTIVPFDYWGQGTTVTVSS VL: DIQMTQSPSSLSASVGDRVTITCRASQDISNYLNWYQQKPGKAPKLLIYYTSTLHSGVPSRFSGSGSGTDFTLTISSLQPEDFATYYCQQGYTLPWTFGQGTKLEIKR | 37900 |
